Target: human BRD4 bromodomain II (Homo sapiens, UniProt O60885)
Construct: human BRD4 bromodomain II [based on Genbank NM_058243, residues 349-460]; host or cells: E. coli
Assay: Bromodomain binding assay (AlphaScreen), BRD4 BDII
Settings: AlphaScreen assay, Table C1; read-out: BRD4 BDII IC50
pIC50: −log10 of the molar value.
List of pIC50 values.

smiles-notation	system-tested	value-kind	reported-value
CC(=O)Nc1ccc(-c2cccc(-c3cc(N4CCNCC4)no3)c2O)cc1	human BRD4 bromodomain II (Homo sapiens, UniProt O60885)	pIC50	7.00 to 8.00
CC(=O)Nc1ccc(-c2cccc(-c3cc(N4CCN(C)CC4)no3)c2O)cc1	human BRD4 bromodomain II (Homo sapiens, UniProt O60885)	pIC50	7.00 to 8.00
C[C@@H]1CN(c2cc(-c3cc(F)cc(-c4ccc(-n5ccn(C)c5=O)c(Cl)c4)c3O)ccn2)CCN1	human BRD4 bromodomain II (Homo sapiens, UniProt O60885)	pIC50	9.00 to 11.00
CC(=O)Nc1ccc(-c2cccc(-c3cccc(N4CCNCC4)c3)c2O)cc1F	human BRD4 bromodomain II (Homo sapiens, UniProt O60885)	pIC50	8.00 to 9.00
CN1CCN(c2ccc(-c3cc(F)cc(-c4ccnc(N5CCNCC5)c4)c3O)cc2Cl)C1=O	human BRD4 bromodomain II (Homo sapiens, UniProt O60885)	pIC50	8.00 to 9.00
Cn1ccn(-c2ccc(-c3cc(F)cc(-c4ccnc(N5CCNCC5)c4)c3O)cc2Cl)c1=O	human BRD4 bromodomain II (Homo sapiens, UniProt O60885)	pIC50	8.00 to 9.00
CC(=O)Nc1ccc(-c2cccc(-c3cccc(N4CCOCC4)c3)c2O)cc1F	human BRD4 bromodomain II (Homo sapiens, UniProt O60885)	pIC50	7.00 to 8.00
CC(=O)Nc1ccc(-c2cccc(-c3cccc(N4CCNCC4)c3)c2O)cc1Cl	human BRD4 bromodomain II (Homo sapiens, UniProt O60885)	pIC50	8.00 to 9.00

// pIC50 value for `CC(=O)Nc1ccc(-c2cccc(-c3ccnc(N4CCNCC4)c3)c2O)cc1F` : 8.00 to 9.00

So, `CN1CCN(c2ccc(-c3cccc(-c4ccnc(N5CCNCC5)c4)c3O)cc2Cl)C1=O` ? Its pIC50 was 8.00 to 9.00

----------
Biological target: human BRD4 bromodomain II (Homo sapiens, UniProt O60885)
Construct: human BRD4 bromodomain II [based on Genbank NM_058243, residues 349-460]; host or cells: E. coli
Assay: Bromodomain binding assay (AlphaScreen), BRD4 BDII
Conditions: AlphaScreen assay, Table C2; read-out: BRD4 BDII IC50
value-kind: IC50

# count of solved cases: 6
compound	reported-value
CC(=O)Nc1ccc(-c2cccc(-c3cccc(N4CC5CNC(C5)C4)c3)c2O)cc1F (stereo not shown)	1 to 10 nM
O=C1CCCN1c1ccc(-c2cccc(-c3cccc(N4CCNCC4)c3)c2O)cc1F	1 to 10 nM
CC1CC(=O)N(c2ccc(-c3cccc(-c4ccnc(N5CCNCC5)c4)c3O)cc2Cl)C1 (stereo not shown)	> 100 nM
CCC(=O)Nc1cc(-c2cc(F)cc(-c3ccc(-n4ccn(C)c4=O)c(Cl)c3)c2O)cc(N2CC[C@H](N)C2)n1	1 to 10 nM
Cc1cc(-c2cc(F)cc(-c3ccc(-n4ccn(C)c4=O)c(Cl)c3)c2O)cc(N2CC[C@H](N)C2)n1	0.01 to 1 nM
COc1ncc(-c2cc(F)cc(-c3ccc(-n4ccn(C)c4=O)c(Cl)c3)c2O)cc1N1CC(C)(O)C2(CC2)C1 (stereo not shown)	1 to 10 nM

Please look at the following compound next.
Measured IC50 of CC(=O)Nc1ccc(-c2cccc(-c3cc(N4CCNCC4)no3)c2O)cc1OC1CCCC1 [Example 89, 2,2,2-trifluoroacetate] : 10 to 100 nM
